Just for reference, ChEMBL document CHEMBL1201862 is where these values come from.

- System: MCF7
- procedure.text: NCI tumour cell line growth inhibition, 48 h
Active and inactive are the calls of the source. Cut-off read from the data, not from the text of the source: active = GI50 up to about 1.1 µM and inactive = higher.
attribute.measured: GI50

compound="Clc1cc2nnn(C3CCCCO3)c2cc1Cl (stereo not drawn)" reported_value="> 100 µM (inactive)"
compound=CCOC(=O)C1=NOC2(C=C(Br)C(=O)C(Br)=C2)C1 reported_value="2.45 µM (inactive)"
compound="CC1(Br)Cc2ccccc2C1=O (stereo not drawn)" reported_value="3.73 µM (inactive)"
compound="CCc1ncc(C(C)(O)c2ccccc2)n1Cc1ccccc1 (stereo not drawn)" reported_value="67.8 µM (inactive)"
compound=CCCCCCc1cc2cc(-c3csc(CC#N)n3)c(=O)oc2cc1O reported_value="> 49.4 µM (inactive)"
compound=C[C@]12[C@@H]3CC[C@H]1[C@@H](O)C(=O)N2CC3 reported_value="> 100 µM (inactive)"
compound=S=C(NN=C1NCCCN1)Nc1ccccc1 reported_value="> 100 µM (inactive)"
compound=CC(C)C(=O)Cc1ccc2ccccc2n1 reported_value="> 100 µM (inactive)"
compound="COC(=O)C1(Cc2ccc3c(c2)CCC3)Cc2ccc3c(c2C1O)CCC3 (stereo not drawn)" reported_value="12.9 µM (inactive)"
compound=CC(=O)Oc1cc(C)c(OC(C)=O)c2c1[C@H]1CC[C@]3(C)[C@@H](OC(C)=O)CC[C@H]3[C@@H]1CC2 reported_value="20.6 µM (inactive)"
compound="CCCCC1Nc2ccccc2-c2ccnc(Cl)c21 (stereo not drawn)" reported_value="35 µM (inactive)"
compound="OC1CCCN(C2(c3cccs3)CCCCC2)C1 (stereo not drawn)" reported_value="> 100 µM (inactive)"
compound=Cc1cc(CN2CCCCC2)c(O)c(CN2CCCCC2)c1 reported_value="> 100 µM (inactive)"

###

- Tested on: SF-295
- procedure.text: NCI tumour cell line growth inhibition, 48 h
The source made the active and inactive calls. No stated cut-off is given here; in the data, active = GI50 up to about 1.1 µM and inactive = higher.
Outcomes: true (1) (active), false (0) (inactive)

compound=CCCCCCCCCCC(=O)CCCCCCC(=O)O target_system=SF-295 category_label="false (0)"
compound=COc1cc2cc3c4cc(OC)c(OC)cc4cc[n+]3c(C)c2cc1OC.O=C([O-])CS(=O)(=O)O target_system=SF-295 category_label="false (0)"
compound="COC(=O)[C@H](Cc1ccccc1)NP(=O)(O)OCC1OC(n2cc(C)c(=O)[nH]c2=O)CC1N=[N+]=[N-] (stereo partly drawn)" target_system=SF-295 category_label="false (0)"
compound="CC(C)(Cl)C(Br)CC/C(=C/CCl)CBr.CC(C)(Cl)C(Br)CC/C(=C\\CCl)CBr (stereo not drawn)" target_system=SF-295 category_label="false (0)"
compound=O=c1[nH]/c(=C/c2ccc(OCc3ccccc3)cn2)c(=O)[nH]/c1=C/c1cccnc1 target_system=SF-295 category_label="true (1)"
compound=O=C(O)CCCc1ccc2c(c1)CC1(C2)Cc2ccc(CCCC(=O)O)cc2C1 target_system=SF-295 category_label="false (0)"
compound=CCOC(=O)Cc1cc(OC)c(OC)cc1/C(Cl)=C(\CO)c1ccc(OC)c(OC)c1 target_system=SF-295 category_label="false (0)"
compound="CC1(C)CC(c2c[nH]c3ccccc23)=CC2=Nc3ccccc3C21O (stereo not drawn)" target_system=SF-295 category_label="false (0)"

###

- Test system: PC-3
- procedure.text: NCI tumour cell line growth inhibition, 48 h
Calls of active or inactive are those of the source. Cut-off read from the data, not from the text of the source: active = GI50 up to about 1.1 µM and inactive = higher.
attribute.measured: GI50

compound=N#Cc1ccc(Oc2nc3ccccc3nc2-c2ccccc2)cc1 reported_value="> 100 µM (inactive)"
compound=CCOC(=O)N1CCNCCN(C(=O)OCC)CCNCC1 reported_value="> 100 µM (inactive)"
compound=Cn1c(=O)c2nc(SCCN3CCOCC3)[nH]c2n(C)c1=S reported_value="> 100 µM (inactive)"
compound="CC(NC(=O)C(N)CC(=O)O)NC(=O)N1CCCC1 (configuration not stated)" reported_value="> 100 µM (inactive)"
compound=Nc1nc(-c2cc(-c3cccc4ccccc34)nc(N)n2)cc(-c2cccc3ccccc23)n1 reported_value="> 100 µM (inactive)"
compound="O=C1/C(=C/C=C/c2ccccc2)CCC1CNc1ccccc1 (configuration not stated)" reported_value="36 µM (inactive)"
compound=CCOCc1nc2c(OC)c(-c3nc4ccc(N5CCN(C)CC5)cc4[nH]3)cc(OC)c2[nH]1 reported_value="63.4 µM (inactive)"
compound="CC(C)=CCC/C(C)=C/COC(C)(C)C1=CCC(C)CC1.CC(C)=CCC/C(C)=C/COC1CC(C)CCC1=C(C)C (configuration not stated)" reported_value="> 100 µM (inactive)"
compound="CC1(C)C2CCC1C(=O)[C@@]1(C=CC(=O)CC1)C2 (some centres not stated)" reported_value="> 100 µM (inactive)"
compound=C=C1CC(CNc2cc(Cl)nc(N)n2)C1 reported_value="> 100 µM (inactive)"
compound=C[C@H](OC(=O)/C=C/c1ccc(O)c(O)c1)[C@H](C)OC(=O)/C=C/c1ccc(O)c(O)c1 reported_value="13.1 µM (inactive)"
compound=C=CCCON(C(=O)OC(C)(C)C)c1ccccc1 reported_value="4.12 µM (inactive)"
compound=Oc1ccnc(SCc2ccc(Cl)cc2)n1 reported_value="> 100 µM (inactive)"
compound=C=CC(=O)N1C/C(=C\c2ccc(OC)cc2)C(=O)/C(=C/c2ccc(OC)cc2)C1 reported_value="1.83 µM (inactive)"
compound=C=C1CC/C=C(\C)C(=O)C[C@@H]2[C@@H]1CC2(C)C reported_value="9.14 µM (inactive)"
compound="C=C1C(=O)OC2C1CC(O)/C(C)=C\\CCC1(C)OC21 (configuration not stated)" reported_value="23.2 µM (inactive)"
compound="COc1cc2c(cc1OC)C1(COc3cc(O)c(O)c(O)c3C1=O)C2 (configuration not stated)" reported_value="> 50 µM (inactive)"
compound=O=c1oc2ccc([N+](=O)[O-])cc2c(Nc2ccc3c(c2)S(=O)(=O)c2ccccc2O3)c1[N+](=O)[O-] reported_value="34.8 µM (inactive)"
compound="CCCNC1=Nc2ccccc2NC(C)C1 (configuration not stated)" reported_value="> 100 µM (inactive)"
compound=O=c1oc2ccccc2c(Nc2ccc3c(c2)Sc2ccccc2O3)c1[N+](=O)[O-] reported_value="19.4 µM (inactive)"
compound="OC1CCCN(C2(c3cccs3)CCCCC2)C1 (configuration not stated)" reported_value="> 100 µM (inactive)"
compound=CC(C)(C)OC(=O)N/C=C1\C(=O)Oc2ccccc2C1=O reported_value="32.3 µM (inactive)"
